Where do the numbers come from? From ChEMBL document CHEMBL4138045.

Entries below carry reported Ki on Mu-type opioid receptor (Mus musculus).
Sequence (P42866 whole entry): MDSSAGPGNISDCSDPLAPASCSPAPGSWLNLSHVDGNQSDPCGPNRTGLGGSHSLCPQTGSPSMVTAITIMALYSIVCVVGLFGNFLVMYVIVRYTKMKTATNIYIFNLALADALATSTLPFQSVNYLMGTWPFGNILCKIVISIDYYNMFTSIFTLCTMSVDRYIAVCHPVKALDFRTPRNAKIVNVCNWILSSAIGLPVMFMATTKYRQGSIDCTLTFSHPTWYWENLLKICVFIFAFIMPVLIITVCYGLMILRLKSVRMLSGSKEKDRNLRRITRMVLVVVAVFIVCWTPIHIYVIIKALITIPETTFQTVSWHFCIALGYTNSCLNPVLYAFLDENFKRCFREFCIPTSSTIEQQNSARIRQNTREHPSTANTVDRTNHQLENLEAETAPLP
One number for each entry, in nM.

Report Ki for every entry below.
1. CN1CC[C@]23c4c5ccc(O)c4O[C@H]2[C@@H](NC(=O)c2cccnc2)CC[C@@]3(O)[C@H]1C5
2. CN1CC[C@]23c4c5ccc(O)c4O[C@H]2[C@@H](NC(=O)c2ccncc2)C=C[C@H]3[C@H]1C5
3. COc1ccc2c3c1O[C@H]1[C@@H](NC(=O)c4ccncc4)C=C[C@H]4[C@@H](C2)N(C)CC[C@@]341

Outgoing:
6.91
2
40.6

Parameters: items (list). Returns: Ki for each item.
1. CN1CC[C@]23c4c5ccc(O)c4O[C@H]2[C@@H](NC(=O)c2ccncc2)CC[C@@]3(O)[C@H]1C5
2. CN1CC[C@]23c4c5ccc(O)c4O[C@H]2[C@@H](NC(=O)c2cccnc2)C=C[C@H]3[C@H]1C5
3. CN1CC[C@]23c4c5ccc(O)c4O[C@H]2[C@@H](NC(=O)c2ccncc2)CC[C@H]3[C@H]1C5
4. CN1CC[C@]23c4c5ccc(O)c4O[C@H]2[C@@H](NC(=O)c2cccnc2)CC[C@H]3[C@H]1C5

Outgoing:
1. 7.02
2. 1.25
3. 3.73
4. 3.29
